Assay: Preliminary pharmacokinetic analysis
Assay type: in vivo, mice
Settings: NOD/SCID, mouse, plasma, preliminary PK analysis
MEASURED_ENDPOINT: half-life

**Q:** Fill in: half-life of CCOc1ccc2cc(C3CC(c4ccc(I)cc4)=NN3C(=O)CCCC(=O)O)c(Cl)nc2c1 (stereo not shown) is ___
**A:** ~7 h

---

Target: UniProtKB P27694
Sequence (P27694 whole entry): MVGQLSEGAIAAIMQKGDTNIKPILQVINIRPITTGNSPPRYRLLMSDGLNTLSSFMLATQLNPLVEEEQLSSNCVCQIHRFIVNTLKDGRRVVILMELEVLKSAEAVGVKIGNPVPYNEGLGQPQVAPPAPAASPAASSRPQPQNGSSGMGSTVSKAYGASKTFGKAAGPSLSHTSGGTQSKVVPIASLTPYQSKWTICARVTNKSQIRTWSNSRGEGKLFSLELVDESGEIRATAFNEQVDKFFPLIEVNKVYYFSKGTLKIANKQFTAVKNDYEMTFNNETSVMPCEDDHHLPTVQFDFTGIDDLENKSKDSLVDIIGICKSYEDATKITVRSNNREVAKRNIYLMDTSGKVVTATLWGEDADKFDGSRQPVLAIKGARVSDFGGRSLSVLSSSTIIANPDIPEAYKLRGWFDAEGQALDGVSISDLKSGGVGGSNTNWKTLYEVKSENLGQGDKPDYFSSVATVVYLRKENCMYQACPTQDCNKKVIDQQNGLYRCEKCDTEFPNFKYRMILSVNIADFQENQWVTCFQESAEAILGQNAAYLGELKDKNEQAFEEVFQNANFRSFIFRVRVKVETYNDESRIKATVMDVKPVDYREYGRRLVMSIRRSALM
Sequence (P15927 whole entry partner): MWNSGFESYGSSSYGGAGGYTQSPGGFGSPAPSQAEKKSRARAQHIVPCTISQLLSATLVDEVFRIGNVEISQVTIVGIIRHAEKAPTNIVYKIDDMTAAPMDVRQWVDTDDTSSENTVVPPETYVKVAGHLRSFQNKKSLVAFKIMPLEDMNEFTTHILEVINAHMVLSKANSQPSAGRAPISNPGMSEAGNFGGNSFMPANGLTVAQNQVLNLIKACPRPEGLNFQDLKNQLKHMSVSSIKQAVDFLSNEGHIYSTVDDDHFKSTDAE
Sequence (P35244 whole entry partner): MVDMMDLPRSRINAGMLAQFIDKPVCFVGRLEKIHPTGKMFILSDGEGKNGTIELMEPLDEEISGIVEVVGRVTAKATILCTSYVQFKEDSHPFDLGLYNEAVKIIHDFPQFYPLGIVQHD
Test: EMSA for inhibition of RPA-DNA binding activity (full length RPA)
Conditions: EMSA, RPA incubated with compounds at 1-125 μM; read-out: In vitro IC50
Reported pIC50 is given for each of the following compounds.
Interpret pIC50 as the negative base-10 log of the concentration measured in mol/L.

COc1ccc2cc(C3CC(c4ccc(Br)cc4)=NN3C(=O)CCCCC(=O)O)c(Cl)nc2c1 (centres unmarked) [TDRL-534] : 4.46
CCOc1ccc2cc(C3CC(c4ccc(OC(F)(F)F)cc4)=NN3C(=O)CCCCC(=O)O)c(Cl)nc2c1 (centres unmarked) [TDRL-557] : 4.52
CCOc1ccc2cc(C3CC(c4ccc(I)cc4)=NN3c3cccc(C(=O)O)c3)c(Cl)nc2c1 (centres unmarked) [NG-01-02] : 4.12

**Q:** Fill in: pIC50 of CCOc1ccc2cc(C3CC(c4ccc(I)cc4)=NN3C(=O)CCCCCC(=O)O)c(Cl)nc2c1 (centres unmarked) [NG-01-25] is ___
**A:** 5.00

**Q:** Fill in: pIC50 of CCOc1ccc2cc(C3CC(c4ccc(I)cc4)=NN3C(=O)CCCCC(=O)O)c(Cl)nc2c1 (centres unmarked) [NG-01-24] is ___
**A:** 5.15
